System: OPG release in human osteoblast cell line MG-63
procedure_details: Inhibition of OPG release in MG-63 osteoblast cells
Type: cell-based
test_settings: Homo sapiens; MG-63 cells, 24 h
property_measured: pIC50
When answering, recall that pIC50 equals minus log10 of the concentration in mol/L, and write that number alone.

Enquiry: Record request: pIC50 value, item `C[C@]12C=CC(=O)C=C1CC[C@@H]1[C@@H]2[C@@H](O)C[C@@]2(C)[C@H]1CC[C@]2(O)C(=O)CO`
Return: 8.51

----------
Tested on: LPS-induced TNF-α release in rat whole blood
procedure_details: Inhibition of LPS-induced TNF-α release in rat whole blood
Type: cell-based
test_settings: 18 h
property_measured: IC50 (nM)
Reply with just the number (in nM).

Enquiry: Endpoint output: IC50 of `C[C@]12C=CC(=O)C=C1CC[C@@H]1[C@@H]2[C@@H](O)C[C@@]2(C)[C@H]1CC[C@]2(O)C(=O)CO` . Value?
Return: 8.1

----------
tgt: human MR (Homo sapiens, UniProt P08235)
Sequence (P08235 1-984): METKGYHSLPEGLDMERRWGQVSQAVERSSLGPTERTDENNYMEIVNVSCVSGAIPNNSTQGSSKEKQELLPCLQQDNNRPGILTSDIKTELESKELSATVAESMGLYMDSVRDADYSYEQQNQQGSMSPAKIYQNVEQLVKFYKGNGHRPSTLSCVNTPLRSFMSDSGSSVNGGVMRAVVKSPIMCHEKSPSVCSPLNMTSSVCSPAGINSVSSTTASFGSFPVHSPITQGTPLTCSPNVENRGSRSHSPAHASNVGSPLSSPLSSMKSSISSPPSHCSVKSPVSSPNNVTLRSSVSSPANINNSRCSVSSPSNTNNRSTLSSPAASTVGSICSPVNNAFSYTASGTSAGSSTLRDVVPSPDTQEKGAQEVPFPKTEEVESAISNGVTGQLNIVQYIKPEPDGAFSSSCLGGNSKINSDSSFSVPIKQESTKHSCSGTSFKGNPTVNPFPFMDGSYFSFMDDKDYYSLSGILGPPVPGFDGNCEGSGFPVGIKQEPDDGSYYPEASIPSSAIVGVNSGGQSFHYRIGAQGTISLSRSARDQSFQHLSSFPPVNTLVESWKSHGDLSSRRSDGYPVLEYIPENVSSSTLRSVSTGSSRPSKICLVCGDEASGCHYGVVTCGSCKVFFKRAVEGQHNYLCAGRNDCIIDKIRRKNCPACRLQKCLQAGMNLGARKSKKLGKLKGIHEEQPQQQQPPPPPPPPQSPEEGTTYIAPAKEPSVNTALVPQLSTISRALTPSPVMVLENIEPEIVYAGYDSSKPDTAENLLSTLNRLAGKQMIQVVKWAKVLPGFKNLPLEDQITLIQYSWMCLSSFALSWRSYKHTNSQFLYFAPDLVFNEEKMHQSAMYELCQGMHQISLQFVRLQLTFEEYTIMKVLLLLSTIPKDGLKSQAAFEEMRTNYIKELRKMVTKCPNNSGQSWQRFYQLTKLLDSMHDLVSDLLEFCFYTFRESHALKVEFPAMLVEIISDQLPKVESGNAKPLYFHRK
procedure_details: Human MR radioligand binding (3H-aldosterone, recombinant MR from Sf9 cells)
test_settings: 3H-aldosterone 0.4 nM, 20 h, 4°C; read-out: Mineralocorticoid receptor IC50
property_measured: IC50 (pM)
Numeric only. Scale: pM

Enquiry: Quick one: IC50 for `C[C@]12C=CC(=O)C=C1CC[C@@H]1[C@@H]2[C@@H](O)C[C@@]2(C)[C@H]1CC[C@]2(O)C(=O)CO` ?
Return: 780
